Where these numbers come from: ChEMBL document CHEMBL1125514

# target: UniProt Q6L709
# Sequence (Q6L709 whole entry): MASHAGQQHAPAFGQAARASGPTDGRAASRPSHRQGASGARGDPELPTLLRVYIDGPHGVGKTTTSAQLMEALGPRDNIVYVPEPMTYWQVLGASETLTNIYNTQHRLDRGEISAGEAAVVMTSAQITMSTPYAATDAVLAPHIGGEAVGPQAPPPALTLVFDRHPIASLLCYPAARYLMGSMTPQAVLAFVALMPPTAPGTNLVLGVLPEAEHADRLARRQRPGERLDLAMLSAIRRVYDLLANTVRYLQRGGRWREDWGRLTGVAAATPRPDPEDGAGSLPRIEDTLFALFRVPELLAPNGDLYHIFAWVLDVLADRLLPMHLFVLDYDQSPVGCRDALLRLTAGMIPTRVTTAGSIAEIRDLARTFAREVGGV
# assayNotes: Inhibitory activity against HSV-2 thymidine kinase isolated from HeLa cells
# Type: cell-free
# settings: read-out: Log 1/IC50 (converted)
measuredMetric: IC50 (µM)
Kindly provide the numeric value in µM only, without the unit symbol.

Which IC50 is listed for Oc1[nH]c(Nc2cccc(I)c2)nc2ncnc1-2 ?
1.1

Which IC50 is listed for Oc1[nH]c(Nc2ccc3ccccc3c2)nc2ncnc1-2 ?
10

Which IC50 is listed for Oc1[nH]c(Nc2ccc(Br)c(Br)c2)nc2ncnc1-2 ?
1.29

Which IC50 is listed for Oc1[nH]c(Nc2cccc(CBr)c2)nc2ncnc1-2 ?
1.2

Which IC50 is listed for Cc1ccc(Nc2nc3nc[nH]c3c(=O)[nH]2)cc1 ?
6.03

Which IC50 is listed for Oc1[nH]c(Nc2ccc(I)cc2)nc2ncnc1-2 ?
8.91

Which IC50 is listed for Oc1[nH]c(Nc2ccc(Cl)cc2)nc2ncnc1-2 ?
50.1

Which IC50 is listed for CCCCCc1ccc(Nc2nc(O)c3[nH]cnc3n2)cc1 ?
251

Which IC50 is listed for Oc1[nH]c(Nc2cccc(Br)c2)nc2ncnc1-2 ?
0.603

Which IC50 is listed for O=c1nc(Nc2cccc(CO)c2)[nH]c2nc[nH]c12 ?
20

Which IC50 is listed for O=c1[nH]c(Nc2ccc(O)cc2)nc2nc[nH]c12 ?
20

Which IC50 is listed for Oc1[nH]c(Nc2cccc(Cl)c2)nc2ncnc1-2 ?
0.347

Which IC50 is listed for Oc1[nH]c(Nc2ccc(C(F)(F)F)cc2)nc2ncnc1-2 ?
39.8

Which IC50 is listed for CCCCc1ccc(Nc2nc(O)c3[nH]cnc3n2)cc1 ?
50.1

Which IC50 is listed for Oc1[nH]c(Nc2ccc(F)c(Cl)c2)nc2ncnc1-2 ?
2.51

Which IC50 is listed for Oc1[nH]c(Nc2cccc(CCl)c2)nc2ncnc1-2 ?
1.35

Which IC50 is listed for NCc1cccc(Nc2nc(O)c3[nH]cnc3n2)c1 ?
20

Which IC50 is listed for O=c1[nH]c(Nc2cccc(C(F)(F)F)c2)nc2nc[nH]c12 ?
0.1

Which IC50 is listed for Oc1[nH]c(Nc2ccc(F)cc2)nc2ncnc1-2 ?
257

Which IC50 is listed for O=c1[nH]c(Nc2ccc(F)c(F)c2)nc2nc[nH]c12 ?
2.19

Which IC50 is listed for Oc1[nH]c(Nc2ccc(Cl)c(C(F)(F)F)c2)nc2ncnc1-2 ?
5.01

Which IC50 is listed for N#Cc1cccc(Nc2nc3ncnc-3c(O)[nH]2)c1 ?
0.398

Which IC50 is listed for Oc1[nH]c(Nc2ccc(Br)cc2)nc2ncnc1-2 ?
0.603

Which IC50 is listed for CCCc1ccc(Nc2nc(O)c3[nH]cnc3n2)cc1 ?
46.8

Which IC50 is listed for Cc1ccc(Nc2nc(O)c3[nH]cnc3n2)cc1CO ?
200

Which IC50 is listed for CC(C)c1ccc(Nc2nc(O)c3[nH]cnc3n2)cc1 ?
100

Which IC50 is listed for [N-]=[N+]=NCc1cccc(Nc2nc3ncnc-3c(O)[nH]2)c1 ?
1.51

Which IC50 is listed for CCc1cccc(Nc2nc3nc[nH]c3c(=O)[nH]2)c1 ?
3.98

* * *

# target: Thymidine kinase (Human herpesvirus 1 (strain SC16) (HHV-1) (Human herpes simplex virus1), UniProt P06479)
# Sequence (P06479 whole entry): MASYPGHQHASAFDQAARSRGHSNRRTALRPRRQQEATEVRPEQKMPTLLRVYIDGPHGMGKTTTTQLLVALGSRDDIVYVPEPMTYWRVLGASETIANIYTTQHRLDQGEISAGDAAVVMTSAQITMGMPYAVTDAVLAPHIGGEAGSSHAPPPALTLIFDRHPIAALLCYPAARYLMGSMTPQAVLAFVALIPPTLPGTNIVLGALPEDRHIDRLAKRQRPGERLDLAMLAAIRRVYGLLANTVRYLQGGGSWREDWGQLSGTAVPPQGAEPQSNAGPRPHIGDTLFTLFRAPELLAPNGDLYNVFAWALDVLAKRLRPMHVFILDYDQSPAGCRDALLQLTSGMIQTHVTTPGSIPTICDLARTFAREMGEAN
# assayNotes: Inhibitory activity against HSV-1 thymidine kinase isolated from HeLa cells
# Type: cell-free
# settings: read-out: Log 1/IC50 (converted)
Answer each item with its documented IC50.
Kindly provide the numeric value in µM only, without the unit symbol.

Which IC50 is listed for CC(C)c1ccc(Nc2nc(O)c3[nH]cnc3n2)cc1 ?
200

Which IC50 is listed for O=c1nc(Nc2cccc(CO)c2)[nH]c2nc[nH]c12 ?
25.1

Which IC50 is listed for Oc1[nH]c(Nc2ccc(Br)c(Br)c2)nc2ncnc1-2 ?
3.02

Which IC50 is listed for Oc1[nH]c(Nc2ccc(C(F)(F)F)cc2)nc2ncnc1-2 ?
30.2

Which IC50 is listed for O=c1[nH]c(Nc2cccc(C(F)(F)F)c2)nc2nc[nH]c12 ?
0.151

Which IC50 is listed for Oc1[nH]c(Nc2cccc(Cl)c2)nc2ncnc1-2 ?
1.51

Which IC50 is listed for Oc1[nH]c(Nc2ccc(I)cc2)nc2ncnc1-2 ?
39.8

Which IC50 is listed for NCc1cccc(Nc2nc(O)c3[nH]cnc3n2)c1 ?
30.2

Which IC50 is listed for Oc1[nH]c(Nc2ccc(Cl)c(C(F)(F)F)c2)nc2ncnc1-2 ?
20

Which IC50 is listed for Oc1[nH]c(Nc2cccc(I)c2)nc2ncnc1-2 ?
1.1

Which IC50 is listed for CCCCCc1ccc(Nc2nc(O)c3[nH]cnc3n2)cc1 ?
501

Which IC50 is listed for O=c1[nH]c(Nc2ccc(F)c(F)c2)nc2nc[nH]c12 ?
50.1
